The values you see were collected from ChEMBL document CHEMBL3217557.

target: L-lactate dehydrogenase A chain (Homo sapiens); assay: Competitive inhibition of human LDHA4 using sodium pyruvate as substrate measured every 30 secs for 5 mins by Lineweaver-Burk plot analysis in presence of 12.5 to 150 uM NADH
Measured Metric: Ki (µM)

O=C(O)c1cccc(-c2cn(-c3ccc4cc(C(=O)O)n(O)c4c3)nn2)c1 ... 50
O=C(O)c1cc2ccc(-n3cc(CCCc4cn(-c5ccc6cc(C(=O)O)n(O)c6c5)nn4)nn3)cc2n1O ... 20
O=C(O)c1cc2c(-n3cc(-c4ccccc4)nn3)cccc2n1O ... 28
O=C(O)c1cccc(-c2cn(-c3cccc4c3cc(C(=O)O)n4O)nn2)c1 ... 57

---

molecular target: UniProt P00338; test: Inhibition of human LDHA4 using sodium pyruvate as substrate assessed as NADH oxidation at 125 uM measured every 30 secs for 5 mins by spectrophotometric analysis relative to control
Measured inhibition values are reported for all entries that follow.
Measured Metric: inhibition (%)

O=C(O)c1cccc(-c2cn(-c3cccc4c3cc(C(=O)O)n4O)nn2)c1 ... 60
O=C(O)c1cccc(-c2cn(-c3ccc4cc(C(=O)O)n(O)c4c3)nn2)c1 ... 65
O=C(O)c1cc2c(-n3cc(-c4ccccc4)nn3)cccc2n1O ... 73
O=C(O)c1cc2ccc(-n3cc(CCCc4cn(-c5ccc6cc(C(=O)O)n(O)c6c5)nn4)nn3)cc2n1O ... 83

---

target: L-lactate dehydrogenase A chain (Homo sapiens, UniProt P00338); test: Competitive inhibition of human LDHA4 using 0.025 to 1 mM sodium pyruvate as substrate measured every 30 secs for 5 mins by Lineweaver-Burk plot analysis in presence of NADH
pKi: −log10 of the molar value.
Measured Metric: pKi

O=C(O)c1cc2ccc(-n3cc(CCCc4cn(-c5ccc6cc(C(=O)O)n(O)c6c5)nn4)nn3)cc2n1O ... 4.43
O=C(O)c1cc2c(-n3cc(-c4ccccc4)nn3)cccc2n1O ... 4.36
O=C(O)c1cccc(-c2cn(-c3cccc4c3cc(C(=O)O)n4O)nn2)c1 ... 4.07
O=C(O)c1cccc(-c2cn(-c3ccc4cc(C(=O)O)n(O)c4c3)nn2)c1 ... 4.35

---

test: Competitive inhibition of human LDH1 using sodium pyruvate as substrate measured every 30 secs for 5 mins by Lineweaver-Burk plot analysis in presence of 12.5 to 150 uM NADH
Measured Metric: Ki (µM)

O=C(O)c1cccc(-c2cn(-c3cccc4c3cc(C(=O)O)n4O)nn2)c1 ... 89

---

inhibition listing for selected compounds.
organism: Homo sapiens; test: Inhibition of human LDH1 using sodium pyruvate as substrate assessed as NADH oxidation at 125 uM measured every 30 secs for 5 mins by spectrophotometric analysis relative to control
Measured Metric: inhibition

O=C(O)c1cccc(-c2cn(-c3ccc4cc(C(=O)O)n(O)c4c3)nn2)c1 ... < 3%
O=C(O)c1cc2c(-n3cc(-c4ccccc4)nn3)cccc2n1O ... < 3%
O=C(O)c1cc2ccc(-n3cc(CCCc4cn(-c5ccc6cc(C(=O)O)n(O)c6c5)nn4)nn3)cc2n1O ... 32%
O=C(O)c1cccc(-c2cn(-c3cccc4c3cc(C(=O)O)n4O)nn2)c1 ... 60%
